Below are Cell viability, BEAS-2B, Data2 values measured for human bronchial epithelial cells (BEAS-2B).
Ends that are not written are not given here.
I only need the number, thanks.

Example substances with recorded Cell viability, BEAS-2B, Data2:
>>> experimental_result("TDPELV [TaPep60]")
117.95
>>> experimental_result("TQEVVN [TaPep25]")
103.39
>>> experimental_result("HGGDDLG [TaPep28]")
106.08
>>> experimental_result("DAELDK [TaPep34]")
90.63

Now turn to the next substance.
Request: Given PTELESD [TaPep41] , state its recorded Cell viability, BEAS-2B, Data2.
Response: 114.36

---

Ends that are not written are not given here.
Below are Average cell viability, HUVEC values measured for human umbilical vein endothelial cells (HUVEC).
I only need the number, thanks.

>>> experimental_result("AQDDLP [TaPep20]")
100.19

Request: Given APEELDA [TaPep36] , state its recorded Average cell viability, HUVEC.
Response: 101.78

Request: IAVPHEP [TaPep47] ?
Response: 101.12

Request: FPEQQD [TaPep16] ?
Response: 101.44

---

This section presents substances with their documented Cell viability, HPNE, Data3 values.
# Tested on: human pancreatic ductal epithelial cells (HPNE)
Ends that are not written are not given here.
I only need the number, thanks.

Example substances with recorded Cell viability, HPNE, Data3:
>>> experimental_result("DAELDK [TaPep34]")
115.21
>>> experimental_result("AEDNSL [TaPep43]")
113.51
>>> experimental_result("HIDELDE [TaPep22]")
98.54
>>> experimental_result("EVGMQE [TaPep56]")
112.21

Now turn to the next substance.
Request: Given FTEELE [TaPep32] , state its recorded Cell viability, HPNE, Data3.
Response: 81.16

---

# Assay info: Electronic tongue analysis (Taste-Sensing System SA 402B)
# Parameters: unit not given here
# Condition parameters: sensor CA0, peptide 1 mg/mL, reference solution 30 mM KCl + 0.3 mM tartaric acid as baseline, detection threshold -13, room temperature, four replicates, first measurement excluded
Ends that are not written are not given here.
This section presents substances with their documented Sour values.
I only need the number, thanks.

>>> experimental_result("AQDDLP [TaPep20]")
11.76
>>> experimental_result("LQPSLEH [TaPep59]")
15.44
>>> experimental_result("SLEYEFK [TaPep38]")
9.17

Request: Given FEGDQDA [TaPep18] , state its recorded Sour.
Response: 13.35

Request: EQGEQN [TaPep15] ?
Response: 8.97

Request: AQSSLS [TaPep40] ?
Response: 10.99

Request: TDPELV [TaPep60] ?
Response: 12.51

Request: SNDPVA [TaPep71] ?
Response: 14.75

Request: LWGPVT [TaPep72] ?
Response: 11.06

Request: DAELDK [TaPep34] ?
Response: 15.34

Request: TQEVVN [TaPep25] ?
Response: 7.84

Request: VARLEA [TaPep9] ?
Response: 8.17

---

# Assay info: Electronic tongue analysis (Taste-Sensing System SA 402B)
# Set-up: unit not given here
# Condition parameters: sensor C00, peptide 1 mg/mL, reference solution 30 mM KCl + 0.3 mM tartaric acid as baseline, detection threshold 0, room temperature, four replicates, first measurement excluded
Ends that are not written are not given here.
Measured property: Bitter
I only need the number, thanks.

Example substances with recorded Bitter:
>>> experimental_result("STGTIR [TaPep51]")
7.16
>>> experimental_result("YKYHES [TaPep13]")
-0.78
>>> experimental_result("FTEELE [TaPep32]")
2.80
>>> experimental_result("VARLEA [TaPep9]")
2.75
>>> experimental_result("PTELESD [TaPep41]")
3.91
>>> experimental_result("AEDNSL [TaPep43]")
4.00
>>> experimental_result("EFPEQN [TaPep17]")
3.52
>>> experimental_result("TIDDELR [TaPep26]")
3.16

Request: Given FPEQQD [TaPep16] , state its recorded Bitter.
Response: 3.65

Request: KADGNR [TaPep4] ?
Response: 1.90

Request: EQGEQN [TaPep15] ?
Response: 4.11

Request: TDPELV [TaPep60] ?
Response: 3.00

Request: EEVPITD [TaPep46] ?
Response: 4.18

Request: EPDDPDD [TaPep27] ?
Response: 3.79

Request: LWGPVT [TaPep72] ?
Response: 3.83

Request: AQSSLS [TaPep40] ?
Response: 3.31

Request: TAEQVA [TaPep33] ?
Response: 3.28

Request: LQDVVE [TaPep24] ?
Response: 3.73

---

# Assay info: Electronic tongue analysis (Taste-Sensing System SA 402B)
# Design: unit not given here
# Condition parameters: sensor C00, peptide 0.1 mg/mL, reference solution 30 mM KCl + 0.3 mM tartaric acid as baseline, detection threshold 0, room temperature, four replicates, first measurement excluded
Ends that are not written are not given here.
Measured property: Bitter
I only need the number, thanks.

Example substances with recorded Bitter:
>>> experimental_result("TIDDELR [TaPep26]")
7.26
>>> experimental_result("IAVPHEP [TaPep47]")
8.00
>>> experimental_result("EDGPHGD [TaPep45]")
7.77
>>> experimental_result("DQKVLA [TaPep3]")
7.84
>>> experimental_result("TDPELV [TaPep60]")
7.64

Request: Given VAEDLL [TaPep8] , state its recorded Bitter.
Response: 7.50

Request: YDGTPLN [TaPep11] ?
Response: 7.10

Request: LWGPVT [TaPep72] ?
Response: 7.25

Request: EVGMQE [TaPep56] ?
Response: 7.18

Request: EFPEQN [TaPep17] ?
Response: 7.25

Request: VARLEA [TaPep9] ?
Response: 7.95

Request: YKYHES [TaPep13] ?
Response: 7.46

---

# System: human bronchial epithelial cells (BEAS-2B)
Ends that are not written are not given here.
This section presents substances with their documented Cell viability, BEAS-2B, Data2 values.
I only need the number, thanks.

Example substances with recorded Cell viability, BEAS-2B, Data2:
>>> experimental_result("STGTIR [TaPep51]")
97.01
>>> experimental_result("IAVPHEP [TaPep47]")
99.00
>>> experimental_result("APEELDA [TaPep36]")
103.39
>>> experimental_result("LQDVVE [TaPep24]")
117.45
>>> experimental_result("LQPSLEH [TaPep59]")
109.87
>>> experimental_result("FEGDQDA [TaPep18]")
103.49
>>> experimental_result("SLEYLP [TaPep35]")
102.99
>>> experimental_result("EEVPITD [TaPep46]")
103.29

Request: Given SNDPVA [TaPep71] , state its recorded Cell viability, BEAS-2B, Data2.
Response: 109.77

Request: LQPDAGK [TaPep6] ?
Response: 107.88

Request: FTEELE [TaPep32] ?
Response: 104.59

Request: LWGPVT [TaPep72] ?
Response: 92.32

Request: KADGNR [TaPep4] ?
Response: 95.11

Request: EQGEQN [TaPep15] ?
Response: 95.51

Request: AEDNSL [TaPep43] ?
Response: 93.72

Request: EQPLQA [TaPep21] ?
Response: 108.57

Request: KNDESVD [TaPep48] ?
Response: 91.23

Request: EVGMQE [TaPep56] ?
Response: 109.67

Request: HIDELDE [TaPep22] ?
Response: 113.26

Request: DQEPVE [TaPep44] ?
Response: 97.51

Request: YQAENKH [TaPep14] ?
Response: 118.94

Request: FPEQQD [TaPep16] ?
Response: 96.11

Request: TIDDELR [TaPep26] ?
Response: 106.68

Request: TAEQVA [TaPep33] ?
Response: 99.90

Request: SVLEFS [TaPep52] ?
Response: 103.19

Request: EPKVLV [TaPep54] ?
Response: 108.18

Request: EDGPHGD [TaPep45] ?
Response: 99.50

Request: YDGTPLN [TaPep11] ?
Response: 99.80

Request: NNDDEES [TaPep50] ?
Response: 103.89

Request: VAEDLL [TaPep8] ?
Response: 90.53

Request: NGDDEEG [TaPep7] ?
Response: 111.17

Request: DFKEELPK [TaPep42] ?
Response: 103.99
